# assay-remarks: self-splicing fitness, log relative to wild type (ln ratio); higher = more splicing; Tetrahymena group I intron in knt gene, E. coli kanamycin selection, DiMSum; sequences stand for … in CUCUCU…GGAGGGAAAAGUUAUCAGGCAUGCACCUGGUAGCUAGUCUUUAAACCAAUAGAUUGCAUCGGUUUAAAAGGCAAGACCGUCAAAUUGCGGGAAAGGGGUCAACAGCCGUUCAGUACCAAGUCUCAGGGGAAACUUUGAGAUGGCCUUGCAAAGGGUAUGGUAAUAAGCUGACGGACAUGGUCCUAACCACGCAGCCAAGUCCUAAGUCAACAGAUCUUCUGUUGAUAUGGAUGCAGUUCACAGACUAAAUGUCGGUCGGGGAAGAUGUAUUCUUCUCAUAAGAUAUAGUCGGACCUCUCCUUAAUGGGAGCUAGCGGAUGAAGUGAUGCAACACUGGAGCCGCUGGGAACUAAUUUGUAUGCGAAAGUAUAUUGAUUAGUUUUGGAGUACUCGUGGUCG;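 further: selection with 25 µg/mL kanamycin versus none on LB agar overnight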
# assay-context: 30 °C
# thresholds on self-splicing fitness (ln) define classes: LOW: < -3; MEDIUM: ≥ -3 and < -2; HIGH: ≥ -2

Q) Class (by measured self-splicing fitness (ln)) for "UUGGAGCAAUAUUACGUUUC"
A) LOW

Q) Class (by measured self-splicing fitness (ln)) for "CACCAGCAAUAUUACGGCGU"
A) MEDIUM
